Each entry below carries its recorded IC50.
Molecular target: Nonstructural protein 1 (Influenza A virus)
Sequence (Q194T2 whole entry): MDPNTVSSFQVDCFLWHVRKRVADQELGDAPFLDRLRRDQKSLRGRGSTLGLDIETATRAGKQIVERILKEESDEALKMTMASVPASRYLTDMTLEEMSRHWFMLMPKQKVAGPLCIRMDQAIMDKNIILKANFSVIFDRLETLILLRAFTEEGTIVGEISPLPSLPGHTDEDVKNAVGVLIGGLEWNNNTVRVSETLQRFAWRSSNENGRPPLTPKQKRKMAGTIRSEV
Format: functional, Influenza A virus (A/California/07/2009(H1N1))
Activity calls are given as the source filed them.
QUANTITY_KIND: IC50

compound=O=[N+]([O-])c1ccccc1NCCOc1ccccc1 measured_result="> 100 µM (active)"
compound=CC(=O)N(Cc1ccc(F)cc1)C1=C(NCCc2ccccc2)C(=O)c2ccccc2C1=O measured_result="32.2 µM (active)"
compound=COC(=O)c1ccccc1NC(=O)COC(=O)c1ccccc1N=Nc1ccc(N(C)C)cc1 measured_result="21.4 µM (active)"
compound=Cc1c(C(=O)N(C)C)sc2[nH]c(-c3ccccn3)nc(=O)c12 measured_result="13.1 µM (active)"
compound=CCN(CC)c1ccc(N=C2C(=O)Nc3ccccc32)cc1 measured_result="14.3 µM (active)"
compound="CCn1ncc(CN2CCCC(C(=O)Nc3cccc(-c4cc5ccccc5[nH]4)c3)C2)c1C (stereo not drawn)" measured_result="> 100 µM (active)"
compound=CCN(CC)c1ccc(C(=C2C=CC(=[N+](CC)CC)C=C2)c2ccc(N(CC)CC)cc2)cc1 measured_result="0.774 µM (active)"
compound=CC(C)(C)C1=CC(=Nc2ccccc2N)C=C(C(C)(C)C)C1=O measured_result="10.9 µM (active)"

* * *

Each entry below carries its recorded EC50.
Target: Peroxisome proliferator-activated receptor gamma/Nuclear receptor coactivator 2 (Homo sapiens, UniProt P37231)
Sequence (P37231 whole entry): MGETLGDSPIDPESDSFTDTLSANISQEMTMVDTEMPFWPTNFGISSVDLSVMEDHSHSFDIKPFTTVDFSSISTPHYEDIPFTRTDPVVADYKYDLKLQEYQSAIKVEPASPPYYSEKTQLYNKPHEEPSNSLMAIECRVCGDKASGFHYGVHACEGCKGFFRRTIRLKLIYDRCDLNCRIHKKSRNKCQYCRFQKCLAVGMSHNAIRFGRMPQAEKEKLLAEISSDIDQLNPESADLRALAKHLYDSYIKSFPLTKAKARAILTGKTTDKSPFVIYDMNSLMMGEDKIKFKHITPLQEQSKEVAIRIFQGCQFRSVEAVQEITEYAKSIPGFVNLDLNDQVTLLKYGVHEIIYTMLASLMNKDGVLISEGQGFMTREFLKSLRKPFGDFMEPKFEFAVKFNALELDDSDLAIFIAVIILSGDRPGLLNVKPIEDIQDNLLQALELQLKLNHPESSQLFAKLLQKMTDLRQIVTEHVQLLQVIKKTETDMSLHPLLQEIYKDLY
Sequence (Q15596 whole entry, further chain): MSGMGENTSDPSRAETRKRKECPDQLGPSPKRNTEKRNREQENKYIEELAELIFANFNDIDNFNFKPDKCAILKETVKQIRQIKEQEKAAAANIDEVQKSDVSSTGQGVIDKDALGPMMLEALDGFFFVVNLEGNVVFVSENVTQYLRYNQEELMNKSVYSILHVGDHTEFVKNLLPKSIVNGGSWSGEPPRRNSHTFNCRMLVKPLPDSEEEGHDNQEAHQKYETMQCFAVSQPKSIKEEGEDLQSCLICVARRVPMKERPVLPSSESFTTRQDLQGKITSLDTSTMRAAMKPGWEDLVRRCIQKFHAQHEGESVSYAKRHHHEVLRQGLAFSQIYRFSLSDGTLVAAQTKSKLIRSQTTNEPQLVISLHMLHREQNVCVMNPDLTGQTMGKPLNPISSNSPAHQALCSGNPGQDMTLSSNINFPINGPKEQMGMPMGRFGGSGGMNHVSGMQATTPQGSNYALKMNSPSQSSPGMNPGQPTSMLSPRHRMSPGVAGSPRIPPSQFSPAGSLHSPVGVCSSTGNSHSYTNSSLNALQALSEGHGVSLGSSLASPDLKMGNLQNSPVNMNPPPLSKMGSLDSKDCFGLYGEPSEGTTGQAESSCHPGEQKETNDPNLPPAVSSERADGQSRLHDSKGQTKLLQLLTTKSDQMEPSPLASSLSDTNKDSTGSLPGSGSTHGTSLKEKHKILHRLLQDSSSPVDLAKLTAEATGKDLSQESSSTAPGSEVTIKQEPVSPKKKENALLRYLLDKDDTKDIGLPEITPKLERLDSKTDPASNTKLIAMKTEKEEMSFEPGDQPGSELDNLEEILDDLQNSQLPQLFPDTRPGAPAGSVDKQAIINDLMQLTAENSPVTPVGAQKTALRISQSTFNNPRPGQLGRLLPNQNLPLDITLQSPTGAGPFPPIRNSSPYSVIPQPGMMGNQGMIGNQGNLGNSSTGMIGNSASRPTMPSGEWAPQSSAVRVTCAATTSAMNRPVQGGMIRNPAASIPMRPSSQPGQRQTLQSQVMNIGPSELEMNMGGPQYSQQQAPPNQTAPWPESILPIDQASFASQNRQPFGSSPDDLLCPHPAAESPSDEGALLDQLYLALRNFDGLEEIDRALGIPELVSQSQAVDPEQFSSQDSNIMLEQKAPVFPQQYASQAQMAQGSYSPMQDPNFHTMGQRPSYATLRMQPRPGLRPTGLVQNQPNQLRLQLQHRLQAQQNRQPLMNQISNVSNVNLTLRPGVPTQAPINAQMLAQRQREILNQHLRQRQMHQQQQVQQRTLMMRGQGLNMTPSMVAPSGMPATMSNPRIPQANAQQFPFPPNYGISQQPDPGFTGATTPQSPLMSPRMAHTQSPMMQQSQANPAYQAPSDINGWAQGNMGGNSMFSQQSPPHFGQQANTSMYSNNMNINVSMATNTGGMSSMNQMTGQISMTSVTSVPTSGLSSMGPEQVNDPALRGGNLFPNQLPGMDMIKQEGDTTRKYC
Assay: TR-FRET dose response biochemical High Throughput Screening assay for agonists of the steroid receptor coactivator 2 (SRC-2) recruitment by the peroxisome proliferator-activated receptor gamma (PPAR gamma): non-selective agonists. [Related pubchem assays: 1297, 1032 ]
Assay type: functional
QUANTITY_KIND: EC50

substance_smiles=O=C(CSc1ncnc2c1oc1ccccc12)OCc1ccccc1 measured_result="> 8.82 µM (not active)"
substance_smiles=O=C(c1cc2c(s1)-c1ccccc1OC2)N1CCN(c2ccccn2)CC1 measured_result="23.2 µM (not active)"
substance_smiles=O=c1oc(-c2ccccc2F)nc2c1cnn2-c1ccccc1 measured_result="> 79.4 µM (not active)"
substance_smiles=Clc1ccc(Cl)c(-c2ccc(/C=N/c3nc[nH]n3)o2)c1 measured_result="12.6 µM (not active)"

* * *

Assay: luciferase reporter signal suppression in cells – H4 neuroglioma cells, luminescence, dose response (AID 1990)
Format: functional, cell-based
Active and inactive are the calls of the source.
QUANTITY_KIND: EC50

molecule=CN1Cc2c(N3CCOCC3)nc3sc(C(=O)c4ccc(Br)cc4)c(N)c3c2CC1(C)C measured_result="10.4 µM (active)"
molecule=CCCCOc1ccc(NC(=O)C(=O)NCCCn2ccnc2)cc1 measured_result="13.9 µM (active)"
molecule=O=C(/C=C/c1cccs1)NC(=S)NNC(=O)c1ccccc1O measured_result="> 120 µM (not active)"
molecule=O=C(O)CCCc1nc(-c2ccc(Cl)cc2)no1 measured_result="27.1 µM (active)"
molecule=CCCNC(=O)c1ccc2c(O)c(O)c(-c3ccc(C)cc3)nc2c1 measured_result="9.71 µM (active)"
molecule=COc1ccc2c(c1)C(C)=CC(C)(C)N2S(=O)(=O)c1ccc(NC(C)=O)cc1 measured_result="14.4 µM (active)"
molecule="Cc1cccc2c1Sc1ccc(Cl)cc1CC2N1CCNCC1 (configuration not stated)" measured_result="> 120 µM (not active)"

* * *

Target: Phospholipase A2 (Homo sapiens);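 note: confirmatory dose-response counterscreen on phospholipase A2, testing hits that came from an ultra-high-throughput screen for ATG4B inhibitors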
Sequence (P04054 whole entry): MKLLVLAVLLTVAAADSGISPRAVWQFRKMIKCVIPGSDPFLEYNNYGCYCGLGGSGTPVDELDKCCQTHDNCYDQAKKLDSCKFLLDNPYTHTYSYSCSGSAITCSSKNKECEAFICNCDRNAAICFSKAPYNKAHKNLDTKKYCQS
Type: functional
Active and inactive are the calls of the source.
QUANTITY_KIND: IC50

molecule=CCc1ccc(-n2cccc2/C=C2/C(=N)N3C(=NC2=O)SN=C3S(C)(=O)=O)cc1 quantity_kind=IC50 measured_result="12 µM (active)"
molecule=Cc1cc(/C=C2\C(=O)NC(=O)N(c3ccc(Cl)cc3)C2=O)c(C)n1-c1sc2c(c1C#N)CCCC2 quantity_kind=IC50 measured_result="14.1 µM (active)"
molecule="COC(=O)C(C)N(C(=O)c1ccc(C(=O)c2ccccc2)cc1)c1c(C)cccc1C (stereo not given)" quantity_kind=IC50 measured_result="8.13 µM (active)"
molecule="COC(=O)c1ccc(C(=O)N2CCCC(Nc3ccc(C(C)C)cc3)C2)nc1 (stereo not given)" quantity_kind=IC50 measured_result="12.3 µM (active)"
molecule=Cc1ccc(C(=O)O/N=C2\CCCc3ccccc32)cc1 quantity_kind=IC50 measured_result="2.83 µM (active)"

* * *

Target: Voltage-gated inwardly rectifying potassium channel KCNH2 (Homo sapiens);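 note: confirmatory quantitative high-throughput screen measuring inhibition of hERG channel activity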
Sequence (Q12809 whole entry): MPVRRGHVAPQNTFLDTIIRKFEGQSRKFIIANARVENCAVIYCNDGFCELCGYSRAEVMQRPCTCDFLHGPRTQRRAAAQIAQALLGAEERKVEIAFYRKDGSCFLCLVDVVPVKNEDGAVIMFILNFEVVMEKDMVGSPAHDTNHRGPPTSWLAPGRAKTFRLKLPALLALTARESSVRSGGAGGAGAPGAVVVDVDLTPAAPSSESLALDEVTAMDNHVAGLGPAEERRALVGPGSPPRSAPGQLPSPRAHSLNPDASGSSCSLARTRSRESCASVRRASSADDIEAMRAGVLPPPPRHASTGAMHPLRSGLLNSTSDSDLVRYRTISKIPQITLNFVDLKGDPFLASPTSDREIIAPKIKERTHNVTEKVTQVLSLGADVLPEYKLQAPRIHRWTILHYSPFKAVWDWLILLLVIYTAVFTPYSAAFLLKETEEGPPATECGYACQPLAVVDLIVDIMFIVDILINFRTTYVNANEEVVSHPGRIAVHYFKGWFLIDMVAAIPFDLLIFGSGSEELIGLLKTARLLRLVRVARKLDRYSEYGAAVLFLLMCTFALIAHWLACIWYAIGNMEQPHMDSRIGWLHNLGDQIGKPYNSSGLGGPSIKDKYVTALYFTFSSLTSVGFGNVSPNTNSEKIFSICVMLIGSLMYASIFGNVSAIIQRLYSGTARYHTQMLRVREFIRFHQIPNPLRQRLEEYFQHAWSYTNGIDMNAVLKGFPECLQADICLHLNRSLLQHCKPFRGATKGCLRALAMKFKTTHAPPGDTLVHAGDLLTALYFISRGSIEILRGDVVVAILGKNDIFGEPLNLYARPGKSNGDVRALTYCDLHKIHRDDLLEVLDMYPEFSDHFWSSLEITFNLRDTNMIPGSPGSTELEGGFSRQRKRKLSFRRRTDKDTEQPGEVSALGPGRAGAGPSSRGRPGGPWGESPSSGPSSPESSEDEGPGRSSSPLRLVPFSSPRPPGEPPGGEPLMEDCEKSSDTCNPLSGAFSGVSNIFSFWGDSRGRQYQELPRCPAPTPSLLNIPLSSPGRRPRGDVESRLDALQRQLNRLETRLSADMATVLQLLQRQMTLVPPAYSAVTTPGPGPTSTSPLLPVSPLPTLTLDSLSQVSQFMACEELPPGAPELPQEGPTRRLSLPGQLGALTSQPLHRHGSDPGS
Conditions: Potency
Counter-ions that a name gives are not always drawn.
Each entry below carries its recorded AC50.
QUANTITY_KIND: AC50

compound=CC1(C)CCC2=C(O1)c1ccccc1C(=O)C2=O measured_result="15.8 µM (inconclusive)"
compound=CN(C)c1ccc(C2(c3ccc(N(C)C)cc3)OC(=O)c3cc(N(C)C)ccc32)cc1 measured_result="0.251 µM (inconclusive)"
compound=NNC(=O)c1ccncc1 measured_result="35.5 µM (inconclusive)"
compound="CC(CN1c2ccccc2Sc2ccccc21)N(C)C (centres undefined) [PROMETHAZINE HYDROCHLORIDE]" measured_result="15.8 µM (inconclusive)"

* * *

Each entry below carries its recorded IC50.
Molecular target: Rac GTPase-activating protein 1 (Homo sapiens, UniProt Q9H0H5)
Sequence (Q9H0H5 whole entry): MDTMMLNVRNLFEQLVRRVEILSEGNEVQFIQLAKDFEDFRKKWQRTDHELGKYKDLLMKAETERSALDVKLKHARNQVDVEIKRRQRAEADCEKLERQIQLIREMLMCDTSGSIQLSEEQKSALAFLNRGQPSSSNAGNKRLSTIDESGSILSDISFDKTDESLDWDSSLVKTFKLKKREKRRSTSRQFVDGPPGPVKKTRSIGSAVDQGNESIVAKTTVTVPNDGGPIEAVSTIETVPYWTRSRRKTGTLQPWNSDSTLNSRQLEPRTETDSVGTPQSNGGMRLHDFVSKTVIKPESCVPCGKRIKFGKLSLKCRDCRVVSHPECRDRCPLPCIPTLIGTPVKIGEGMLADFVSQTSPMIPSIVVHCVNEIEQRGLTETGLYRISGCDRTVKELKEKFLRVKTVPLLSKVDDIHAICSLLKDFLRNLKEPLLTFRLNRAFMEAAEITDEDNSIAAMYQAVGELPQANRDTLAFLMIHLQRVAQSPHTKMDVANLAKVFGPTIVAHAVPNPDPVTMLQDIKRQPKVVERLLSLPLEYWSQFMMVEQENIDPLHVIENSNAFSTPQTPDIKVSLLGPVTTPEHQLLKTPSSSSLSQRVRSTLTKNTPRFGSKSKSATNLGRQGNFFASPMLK
Test: blockers of MgcRacGAP-driven Rac1 GTP hydrolysis – biochemical, ADP Hunter fluorescence, primary and confirmatory, confirmation (AID 624330)
Assay type: functional
Active and inactive are the calls of the source.
QUANTITY_KIND: IC50

substance_smiles=Cc1ccccc1N1C(=O)NC(=O)/C(=C\c2cnn(-c3ccccc3)c2)C1=O quantity_kind=IC50 measured_result="118 µM (active)"
substance_smiles=CCN(Cc1ccccc1)C1CCN(Cc2ccc(SC)cc2)CC1 quantity_kind=IC50 measured_result="100 µM (active)"
substance_smiles=O=C(N/N=C/c1ccc(O)cc1)NC12CC3CC(CC(C3)C1)C2 quantity_kind=IC50 measured_result="55.9 µM (active)"
substance_smiles=Cc1ccc(S(=O)(=O)Nc2ccc(N(C)C)cc2)cc1 quantity_kind=IC50 measured_result="33.1 µM (active)"

* * *

Target: Sentrin-specific protease 8 (Homo sapiens, UniProt Q96LD8);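 note: luminescence read-out of SENP8 inhibition, dose-response confirmation following an ultra-high-throughput screen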
Sequence (Q96LD8 whole entry): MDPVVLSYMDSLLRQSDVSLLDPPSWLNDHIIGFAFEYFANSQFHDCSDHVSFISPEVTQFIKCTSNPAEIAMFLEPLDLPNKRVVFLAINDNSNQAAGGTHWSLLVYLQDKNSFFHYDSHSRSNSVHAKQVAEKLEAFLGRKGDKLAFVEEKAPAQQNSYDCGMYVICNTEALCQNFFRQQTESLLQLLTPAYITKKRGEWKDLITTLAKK
Type: functional
Calls of active or inactive are those of the source.
Possible outcomes: active, inactive

substance_smiles=COc1ccc(-n2nc3cc(N)c(Br)cc3n2)cc1 label_class=active
substance_smiles=Cc1cc(C)c(O)c(-c2cc(C(=O)Nc3cccnc3)[nH]n2)c1 label_class=inactive
substance_smiles=Cc1ccc(OCc2nc(-c3cccs3)no2)c([N+](=O)[O-])c1 label_class=active
substance_smiles=Cc1ccc(-c2noc(CSc3ccccc3)n2)cc1 label_class=active
substance_smiles=CC(=O)c1sc(Nc2nc3ccc(F)cc3s2)nc1C label_class=active
substance_smiles=CNC(=O)c1ccsc1NC(=O)c1ccc2c(c1)CCCC2 label_class=active
substance_smiles=COc1ccc(/C=C2/CCc3ccccc3C2=O)cc1OC label_class=active

* * *

Biological target: Protein skinhead-1 (Caenorhabditis elegans, UniProt P34707)
Sequence (P34707 whole entry): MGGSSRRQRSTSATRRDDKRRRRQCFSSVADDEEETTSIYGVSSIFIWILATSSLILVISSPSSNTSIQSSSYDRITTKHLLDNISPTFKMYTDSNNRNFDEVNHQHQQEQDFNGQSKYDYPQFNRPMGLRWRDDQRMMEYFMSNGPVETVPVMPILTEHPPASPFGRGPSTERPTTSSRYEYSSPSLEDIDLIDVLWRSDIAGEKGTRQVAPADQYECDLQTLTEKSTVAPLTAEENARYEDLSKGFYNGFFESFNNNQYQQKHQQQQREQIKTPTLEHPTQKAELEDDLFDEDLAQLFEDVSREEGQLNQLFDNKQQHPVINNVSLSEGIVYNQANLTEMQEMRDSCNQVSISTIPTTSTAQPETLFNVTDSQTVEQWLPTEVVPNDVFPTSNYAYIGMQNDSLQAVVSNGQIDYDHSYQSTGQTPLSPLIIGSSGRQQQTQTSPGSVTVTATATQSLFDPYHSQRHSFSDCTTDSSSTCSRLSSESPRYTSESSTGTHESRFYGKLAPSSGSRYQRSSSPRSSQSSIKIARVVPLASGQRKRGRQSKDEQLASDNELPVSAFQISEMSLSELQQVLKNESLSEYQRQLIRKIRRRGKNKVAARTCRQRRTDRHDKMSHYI
Assay type: functional
Counter-ions that a name gives are not always drawn. The source made the active and inactive calls.
QUANTITY_KIND: IC50

molecule=O=[N+]([O-])c1ccccc1NCCOc1ccccc1 measured_result="96.3 µM (inactive)"
molecule=O=C(NCc1ccc(F)c(F)c1)c1ccc(-c2ccc(F)c(F)c2)c2ccoc12 measured_result="< 3.13 µM (active)"
molecule="CN(C)CCCO[C@@H]1[C@H]2OC(C)(C)O[C@H]2O[C@@H]1[C@H](O)CO [AMIPRILOSE HYDROCHLORIDE]" measured_result="> 100 µM (inactive)"
molecule=Cc1cc2cc(CN=C(S)Nc3ccc(OC(F)F)cc3)ccc2n1C measured_result="> 100 µM (inactive)"
molecule="O=C(CN1C2CCC1CC(NC(=O)C1CC1)C2)NCc1ccccc1 (stereo unspecified)" measured_result="> 100 µM (inactive)"
molecule=O=c1[nH]c2cc(Cl)c(Br)cc2o1 measured_result="> 100 µM (inactive)"
molecule=O=C(CSc1nc2ccccc2c2nc3ccccc3n12)NCc1ccco1 measured_result="> 100 µM (inactive)"
molecule="O=C(Nc1cccc(Oc2ccccc2)c1)C1Cc2c(-c3ccc4c(c3)OCO4)ccnc2O1 (stereo unspecified)" measured_result="> 100 µM (inactive)"
molecule=CCc1ccc(NCc2nc(-c3ccccc3)no2)cc1 measured_result="> 100 µM (inactive)"
molecule=Cc1ccc2nc(-c3ccc(N)cc3)sc2c1 measured_result="> 100 µM (inactive)"
molecule=O=C(Nc1ccc(Cl)cc1)Nc1ccc(Br)cn1 measured_result="> 100 µM (inactive)"

Sourced from ChEMBL document CHEMBL1201862
